Sourced from PubChem BioAssay (EPA / NIEHS)

- Read-out: Urokinase-type plasminogen activator receptor (uPAR), PLAUR (gene 5329)
- assay text: BSK_4H_uPAR: BioMAP Diversity Plus: 4H Assay for Urokinase-type plasminogen activator receptor (uPAR) Biomarker Activity (AID 2283030)
- condition: primary human endothelial cells (HUVEC); actives raise or lower the signal
Calls of active or inactive are those of the source. How the source made its calls: active means hit-call score of the fitted dose curve at least 0.9, where 1 is the maximum; inactive means score below 0.9.
Please reply with one of these outcomes: active, inactive

Task: I'd appreciate the recorded outcome for CCOP(=O)(OCC)Oc1nc(Cl)c(Cl)cc1Cl from this test.
Result: active

Task: State the result this test recorded for CC(C)Nc1nc(Cl)nc(NC(C)C)n1 .
Result: inactive

Task: Call for entry Nc1c(Cl)c(Cl)nc(C(=O)O)c1Cl :
Result: inactive

Task: Field: outcome | Entry: CC1(C)C(C=C(Cl)Cl)C1C(=O)OC(C#N)c1cccc(Oc2ccccc2)c1 (stereo not drawn)
Result: inactive

Task: Any idea what this test logged for CCCCC(C#N)(Cn1cncn1)c1ccc(Cl)cc1 (stereo not drawn) ?
Result: inactive

Task: I would be grateful if you could indicate the recorded call for CCOP(=S)(OCC)Oc1nc(Cl)n(C(C)C)n1 .
Result: inactive

Task: What is the recorded call for this molecule in the test? CCNC(=O)NC(=O)C(C#N)=NOC
Result: inactive

Task: Kindly provide the recorded test outcome for the following molecule: CNC(=O)Oc1cccc2ccccc12
Result: inactive

Task: Write down the call the test reported for this molecule. Item: CO/N=C(/C1=NOCCO1)c1ccccc1Oc1ncnc(Oc2ccccc2Cl)c1F
Result: active

Task: Called result for CCCN(CC)CC1COC2(CCC(C(C)(C)C)CC2)O1 (stereo not drawn)
Result: inactive

Task: Field: outcome | Entry: CC(C)C1(C)N=C(c2ncccc2C(=O)O)NC1=O (stereo not drawn)
Result: inactive

Task: Hi, sorry to bother you, what did the test record for CCCCC(O)(Cn1cncn1)c1ccc(Cl)cc1Cl (stereo not drawn) ?
Result: inactive

Task: I would be grateful if you could indicate the recorded call for O=c1n(Cl)c(=O)n(Cl)c(=O)n1Cl .
Result: inactive

Task: Name the outcome recorded for CCC(C)n1c(=O)[nH]c(C)c(Br)c1=O (stereo not drawn) in the assay.
Result: inactive

Task: Hi, do you know how CCOC(=O)C(C)OC(=O)c1cc(Oc2ccc(C(F)(F)F)cc2Cl)ccc1[N+](=O)[O-] (stereo not drawn) came out in this test?
Result: active

Task: For this molecule, state the assay outcome: CS(=O)(=O)c1cc(C(F)(F)F)ccc1C(=O)c1cnoc1C1CC1
Result: inactive

Task: I would be grateful if you could indicate the recorded call for CCN(CC)c1nc(C)cc(OP(=S)(OC)OC)n1 .
Result: inactive

Task: Give the logged outcome of this assay for the following molecule: COc1cc(OC)nc(NC(=O)NS(=O)(=O)c2ncccc2OCC(F)(F)F)n1
Result: inactive

Task: Fill in: this test's call for COP(=S)(OC)Oc1ccc([N+](=O)[O-])c(C)c1 is ___
Result: inactive

Task: Hi team, can someone confirm the assay call for CS(=O)(=O)c1ccc(C(=O)C2C(=O)CCCC2=O)c([N+](=O)[O-])c1 ?
Result: inactive

Task: Status in this test for Cc1ccc(N=CN(C)C=Nc2ccc(C)cc2C)c(C)c1 ?
Result: active

Task: Hi, sorry to bother you, what did the test record for COCC(=O)N(c1c(C)cccc1C)C(C)C(=O)OC (stereo not drawn) ?
Result: inactive

Task: What outcome does the record of this test show for CCCC(=NOCC)C1=C(O)CC(CC(C)SCC)CC1=O (stereo not drawn) ?
Result: inactive
